- target under test: Nicotinamide phosphoribosyltransferase (Homo sapiens, UniProt P43490)
- experimental protocol: Inhibition of Nampt activity in H2O2-induced DNA damage in human MCF10A cells stably transfected with PIK3CA (H1047R) assessed as loss of PARP activity
- Format: cell-based
- measurement parameters: MCF-10A
- Sequence (P43490 whole entry, looked up): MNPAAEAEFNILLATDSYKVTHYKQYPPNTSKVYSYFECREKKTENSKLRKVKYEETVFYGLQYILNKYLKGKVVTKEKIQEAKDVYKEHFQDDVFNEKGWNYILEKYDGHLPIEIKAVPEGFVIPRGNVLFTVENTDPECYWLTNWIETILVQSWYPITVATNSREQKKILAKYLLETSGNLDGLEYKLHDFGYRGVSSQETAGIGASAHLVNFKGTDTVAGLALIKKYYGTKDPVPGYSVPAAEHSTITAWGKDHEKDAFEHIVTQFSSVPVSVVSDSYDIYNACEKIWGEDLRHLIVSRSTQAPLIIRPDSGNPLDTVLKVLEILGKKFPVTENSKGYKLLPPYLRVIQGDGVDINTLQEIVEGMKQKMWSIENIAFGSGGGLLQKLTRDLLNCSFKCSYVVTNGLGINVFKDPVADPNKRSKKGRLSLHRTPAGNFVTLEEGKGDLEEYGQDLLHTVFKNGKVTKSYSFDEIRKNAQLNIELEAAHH
Rule: inhibitory concentration of 0.002 µM or more gives yes (1); anything lower gives no (0).

C#CCN(Cc1cc2c(=O)n(C)c(CN3CCN(CCCN)CC3)nc2cc1Cl)c1ccc(C(=O)NCc2cccnc2)cc1 :: no (0)
CC(C)=CCN(Cc1cc2c(=O)n(C)cnc2cc1Cl)c1ccc(C(=O)NCc2cccnc2)cc1 :: no (0)
CC(C)=CCN(Cc1cc2c(=O)n(C)nnc2cc1Cl)c1ccc(C(=O)NCc2cccnc2)cc1 :: no (0)

### Prompt I'd appreciate it if you could say whether C#CCN(Cc1ccc2nc(C)n(C)c(=O)c2c1)c1ccc(C(=O)NCc2ccc3c(c2)OCO3)cc1 has inhibitory concentration at least equal to 0.002 µM.
### Response yes (1)

### Prompt I'd appreciate it if you could say whether Cn1cnc2cc(Cl)c(CN(CC(N)=O)c3ccc(C(=O)NCc4cccnc4)cc3)cc2c1=O has inhibitory concentration at least equal to 0.002 µM.
### Response yes (1)

### Prompt I'd appreciate it if you could say whether Cn1cnc2cc(Cl)c(NCc3ccc(C(=O)NCc4cccnc4)cc3)cc2c1=O has inhibitory concentration at least equal to 0.002 µM.
### Response yes (1)

---

Reported log10(IC50) by item:
- target under test: Nicotinamide phosphoribosyltransferase (Homo sapiens, UniProt P43490)
- experimental protocol: Inhibition of nicotinamide phosphoribosyltransferase-catalyzed conversion of nicotinamide to nicotinamide mononucleotide
- Sequence (P43490 whole entry): as the sequence (P43490 whole entry, looked up) above
A value of 2 here means IC50 of 100 in nM, since values are log10.

CC(C)CN(Cc1ccccc1Cl)c1ccc(C(=O)NCc2cccnc2)cc1 :: 2.62

### Prompt Entry under review: C#CCCN(Cc1cc2c(=O)n(C)cnc2cc1Cl)c1ccc(C(=O)NCc2cccnc2)cc1 . Reported log10(IC50)?
### Response 1.08

### Prompt Entry under review: Cn1cnc2cc(Cl)c(CN(CC3CC3)c3ccc(C(=O)NCc4cccnc4)cc3)cc2c1=O . Reported log10(IC50)?
### Response 1.11

### Prompt Entry under review: Cc1c(Sc2ccc(C(=O)NCCc3cccnc3)cc2)[nH]c2nc(N)nc(N)c12 . Reported log10(IC50)?
### Response 1.95

### Prompt Entry under review: O=C(NCc1cccnc1)c1ccc(N(Cc2ccccc2)Cc2ccccc2Cl)cc1 . Reported log10(IC50)?
### Response 2.04

### Prompt Entry under review: CC(C)=CCN(Cc1cc2c(=O)n(C)cnc2cc1Cl)c1ccc(C(=O)NCc2cccnc2)cc1 . Reported log10(IC50)?
### Response 0.41

### Prompt Entry under review: CC(C)=CCN(Cc1ccc2nc(C)n(C)c(=O)c2c1)c1ccc(C(=O)NCc2cccnc2)cc1 . Reported log10(IC50)?
### Response 0.15

### Prompt Entry under review: C#CCN(Cc1ccc2nc(C)n(C)c(=O)c2c1)c1ccc(C(=O)NCc2ccc(F)c(F)c2)cc1 . Reported log10(IC50)?
### Response 1.48

### Prompt Entry under review: C#CCN(Cc1ccccc1Cl)c1ccc(C(=O)NCc2cccnc2)cc1 . Reported log10(IC50)?
### Response 0.62

---

- target under test: Thymidylate synthase (Homo sapiens)
- Sequence (P04818 whole entry): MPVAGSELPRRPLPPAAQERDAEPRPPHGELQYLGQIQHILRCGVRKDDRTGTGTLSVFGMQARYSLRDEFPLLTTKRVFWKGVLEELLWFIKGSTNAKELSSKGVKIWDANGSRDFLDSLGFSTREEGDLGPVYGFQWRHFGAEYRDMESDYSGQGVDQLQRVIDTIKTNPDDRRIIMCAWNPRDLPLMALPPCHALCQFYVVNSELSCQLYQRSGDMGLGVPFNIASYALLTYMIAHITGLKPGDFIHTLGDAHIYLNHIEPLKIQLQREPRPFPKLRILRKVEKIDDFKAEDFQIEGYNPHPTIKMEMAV
Reported pIC50 by item:
Note: pIC50 values are expressed as the negative base-10 logarithm of concentration in M.

C#CCN(Cc1cc2c(=O)[nH]c(C)nc2cc1Br)c1ccc(C(=O)NCc2ccccn2)cc1 :: 6.81

Could you now look at the following molecule, please?
### Prompt Entry under review: C#CCN(Cc1cc2c(=O)[nH]c(C)nc2cc1Br)c1ccc(C(=O)NCc2ccncc2)cc1 . Reported pIC50?
### Response 6.81

---

- target under test: UniProtKB P43490
- experimental protocol: Inhibition of nicotinamide phosphoribosyltransferase-catalyzed conversion of nicotinamide to nicotinamide mononucleotide
Lab note: cut-off is 80 nM. Strictly less in IC50 is Yes. Exactly 80 nM or more is No.

O=C(NCc1cccnc1)c1ccc(N(Cc2ccccc2Cl)CC2CC2)cc1 :: Yes
Cc1nc2c(c(=O)[nH]1)CN(C(=O)Nc1ccc(C(=O)NCc3cccnc3)cc1)CC2 :: Yes
C#CCN(Cc1cc2c(=O)n(C)c(CN3CCN(C)CC3)nc2cc1Cl)c1ccc(C(=O)NCc2cccnc2)cc1 :: Yes
CC(C)=CCN(Cc1ccc2ncn(C)c(=O)c2c1)c1ccc(C(=O)NCc2cccnc2)cc1 :: Yes
C#CCN(Cc1ccc2nc(C)n(C)c(=O)c2c1)c1ccc(C(=O)NCc2nc3ccccc3[nH]2)cc1 :: No

### Prompt In plain terms, does Cc1c(Sc2ccc(C(=O)NCc3cccnc3)cc2)[nH]c2nc(N)nc(N)c12 come in under 80 nM for IC50?
### Response No

### Prompt In plain terms, does Cc1noc(C)c1CN(Cc1ccc2nc(C)n(C)c(=O)c2c1)c1ccc(C(=O)NCc2cccnc2)cc1 come in under 80 nM for IC50?
### Response No

### Prompt In plain terms, does C#CCN(Cc1ccc2nc(C)n(C)c(=O)c2c1)c1ccc(C(=O)NCc2cccnc2)cc1 come in under 80 nM for IC50?
### Response Yes

### Prompt In plain terms, does CC(C)=CCN(Cc1ccc2nc(C)n(C)c(=O)c2c1)c1ccc(C(=O)NCc2nc3ccccc3[nH]2)cc1 come in under 80 nM for IC50?
### Response Yes

### Prompt In plain terms, does CC(C)=CC(=O)N(Cc1cc2c(=O)n(C)cnc2cc1Cl)c1ccc(C(=O)NCc2cccnc2)cc1 come in under 80 nM for IC50?
### Response No

### Prompt In plain terms, does C#CCN(Cc1ccc2nc(C)n(C)c(=O)c2c1)c1ccc(C(=O)NCc2ccc3c(c2)OCO3)cc1 come in under 80 nM for IC50?
### Response No

### Prompt In plain terms, does C#CCN(Cc1ccc2nc(C)n(C)c(=O)c2c1)c1ccc(C(=O)NCc2cccc(F)c2)cc1 come in under 80 nM for IC50?
### Response No

### Prompt In plain terms, does C#CCN(Cc1coc2nc(N)nc(N)c12)c1ccc(C(=O)NCc2cccnc2)cc1 come in under 80 nM for IC50?
### Response No

### Prompt In plain terms, does C#CCN(Cc1ccc2ncn(C)c(=O)c2c1)c1ccc(C(=O)NCc2cccnc2)cc1 come in under 80 nM for IC50?
### Response Yes

---

- target under test: Nicotinamide phosphoribosyltransferase (Homo sapiens, UniProt P43490)
- experimental protocol: Inhibition of nicotinamide phosphoribosyltransferase-catalyzed conversion of nicotinamide to nicotinamide mononucleotide
observation type: pIC50
Note: pIC50 values are expressed as the negative base-10 logarithm of concentration in M.

The examples below pair each entry with its known result.
C#CCCN(Cc1ccc2nc(C)n(C)c(=O)c2c1)c1ccc(C(=O)NCc2cccnc2)cc1 :: 6.02
Cc1nc2ccc(CN(CC3CC3)c3ccc(C(=O)NCc4cccnc4)cc3)cc2c(=O)n1C :: 5.59
C#CCN(Cc1ccc2nc(C)n(C)c(=O)c2c1)c1ccc(C(=O)NCc2ccccc2F)cc1 :: 7.47
C#CCN(Cc1ccc2nc(C)n(C)c(=O)c2c1)c1ccc(C(=O)NCc2ccc(F)c(F)c2F)cc1 :: 7.01
CC(C)=CCN(Cc1cc2c(=O)n(C)c(C)nc2cc1Cl)c1ccc(C(=O)NCc2cccnc2)cc1 :: 7.96

Could you now look at the following molecule, please?
### Prompt Entry under review: Cn1cnc2cc(Cl)c(CN(CC(N)=O)c3ccc(C(=O)NCc4cccnc4)cc3)cc2c1=O . Reported pIC50?
### Response 7.25

---

- target under test: Nicotinamide phosphoribosyltransferase (Homo sapiens, UniProt P43490)
- experimental protocol: Inhibition of Nampt activity in H2O2-induced DNA damage in human MCF10A cells stably transfected with PIK3CA (H1047R) assessed as loss of PARP activity
- Format: cell-based
- measurement parameters: MCF-10A
observation type: inhibitory concentration

C#CCN(Cc1coc2nc(N)nc(N)c12)c1ccc(C(=O)NCc2cccnc2)cc1 :: > 5 µM
C#CCN(Cc1ccc2nc(C)n(C)c(=O)c2c1)c1ccc(C(=O)NCc2ccccc2F)cc1 :: > 5 µM
Nc1nc(N)c2c(CCc3ccc(C(=O)NCc4cccnc4)cc3)c[nH]c2n1 :: > 5 µM
CCN(Cc1ccccc1Cl)c1ccc(C(=O)NCc2cccnc2)cc1 :: > 5 µM

Could you now look at the following molecule, please?
### Prompt Entry under review: Cc1nc2c(c(=O)[nH]1)CN(C(=O)Nc1ccc(C(=O)NCc3cccnc3)cc1)CC2 . Reported inhibitory concentration?
### Response > 5 µM

---

- target under test: Nicotinamide phosphoribosyltransferase (Homo sapiens, UniProt P43490)
- experimental protocol: Inhibition of Nampt activity in H2O2-induced DNA damage in human MCF10A cells stably transfected with PIK3CA (H1047R) assessed as loss of PARP activity
- Assay type: cell-based
- measurement parameters: MCF-10A
Reported inhibitory concentration by item:

The examples below pair each entry with its known result.
C#CCN(Cc1ccc2nc(C)n(C)c(=O)c2c1)c1ccc(C(=O)NCc2ccc(F)c(F)c2F)cc1 :: > 5 µM
C#CCN(Cc1ccccc1Cl)c1ccc(C(=O)NCc2cccnc2)cc1 :: 0.15 µM

### Prompt Entry under review: C#CCN(Cc1ccc2nc(C)n(C)c(=O)c2c1)c1ccc(C(=O)NCc2ccc(F)c(F)c2)cc1 . Reported inhibitory concentration?
### Response > 5 µM
